TGT: Human MOR (Homo sapiens, UniProt P35372)
Construct: expressed in transfected cells; host or cells: HEK-293T
Sequence (P35372 whole entry): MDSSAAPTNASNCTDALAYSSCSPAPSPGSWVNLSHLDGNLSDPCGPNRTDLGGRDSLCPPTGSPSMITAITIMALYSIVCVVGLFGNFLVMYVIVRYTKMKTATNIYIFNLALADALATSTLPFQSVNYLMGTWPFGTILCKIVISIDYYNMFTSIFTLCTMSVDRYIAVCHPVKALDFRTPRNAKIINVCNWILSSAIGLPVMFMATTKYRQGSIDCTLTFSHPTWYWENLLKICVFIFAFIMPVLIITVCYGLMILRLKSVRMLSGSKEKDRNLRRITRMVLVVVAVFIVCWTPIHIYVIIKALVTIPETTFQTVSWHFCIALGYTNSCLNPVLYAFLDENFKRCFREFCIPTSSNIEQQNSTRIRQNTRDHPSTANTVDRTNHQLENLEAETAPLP
TEST DESCRIPTION: cell-based
ENDPOINT LABEL: EC50

Some solved entries appear below for comparison.
MOLECULE | RESULT
CN1c2ccccc2C(NCCCCCCC(=O)O)c2ccc(Cl)cc2S1(=O)=O (centres unmarked) [tianeptine, reference compound] | 0.194 µM
COCCCNC1c2ccccc2S(=O)(=O)N(C)c2c(Br)csc21 (centres unmarked) [compound 43] | < 20 µM
Cc1ccc2c(c1)S(=O)(=O)N(C)c1ccccc1C2NCCCCCCC(=O)O (centres unmarked) [compound 16] | < 10 µM
CN1c2ccccc2C(NCCCCCO)c2ccc(Cl)cc2S1(=O)=O (centres unmarked) [compound 30] | > 50 µM
COCCCNC1c2ccccc2N(C)S(=O)(=O)c2cc([S+](C)[O-])ccc21 (mixture of isomers) [compound 55] | < 20 µM
CN1CCCC1CCNC1c2ccccc2N(C)S(=O)(=O)c2cc(Cl)ccc21 (centres unmarked) [compound 47] | < 20 µM

Record EC50 for all entries; do not skip any.
1. CCN1c2ccccc2C(NCCCOC)c2ccccc2S1(=O)=O (centres unmarked) [compound 65]
2. CN1c2ccccc2C(NCCCCCCC(N)=O)c2ccc(Cl)cc2S1(=O)=O (centres unmarked) [compound 52]

Result:
["> 20 µM", "< 10 µM"]

* * *

TGT: Human MOR (Homo sapiens)
Construct: expressed in transfected cells; host or cells: HEK-293T
TEST DESCRIPTION: cell-based
STUDY CONDITIONS: BRET G protein activation, HEK-293T; mean ± SEM of independent trials; read-out: EC50 Human MOR
ENDPOINT LABEL: EC50 (nM)
Numbers only, in nM.

Could you tell me EC50 for each of these molecules? They are listed below.
1. CCOCCCNC1c2ccccc2N(C)S(=O)(=O)c2cc(Cl)ccc21 (stereo not shown)
2. CCOCCCNC1c2ccccc2N(C)S(=O)(=O)c2cc(Br)ccc21 (stereo not shown)

Result:
1: 893; 2: 222

* * *

TGT: Human MOR (Homo sapiens, UniProt P35372)
Construct: expressed in transfected cells; host or cells: HEK-293T
TEST DESCRIPTION: cell-based
ENDPOINT LABEL: EC50

# count of solved cases: 8
COMPOUND | TGT | ENDPOINT LABEL | RESULT
COCCCNC1c2ccccc2N(C)S(=O)(=O)c2cc(Cl)ccc21 (stereo not drawn) | Human MOR (Homo sapiens, UniProt P35372) | EC50 | 0.264 µM
CN1c2ccccc2C(NCCCO)c2ccc(Cl)cc2S1(=O)=O (stereo not drawn) | Human MOR (Homo sapiens, UniProt P35372) | EC50 | 1.81 µM
COCCOCCNC1c2ccccc2N(C)S(=O)(=O)c2cc(Cl)ccc21 (stereo not drawn) | Human MOR (Homo sapiens, UniProt P35372) | EC50 | < 10 µM
CCSc1ccc2c(c1)S(=O)(=O)N(C)c1ccccc1C2NCCCOC (stereo not drawn) | Human MOR (Homo sapiens, UniProt P35372) | EC50 | < 10 µM
CC(=O)OCCCCCCNC1c2ccccc2N(C)S(=O)(=O)c2cc(Cl)ccc21 (stereo not drawn) | Human MOR (Homo sapiens, UniProt P35372) | EC50 | < 10 µM
COCC(C)CNC1c2ccccc2N(C)S(=O)(=O)c2cc(Cl)ccc21 (mixture of isomers) | Human MOR (Homo sapiens, UniProt P35372) | EC50 | < 10 µM
CCOCCCNC1c2ccccc2N(C)S(=O)(=O)c2cc(I)ccc21 (stereo not drawn) | Human MOR (Homo sapiens, UniProt P35372) | EC50 | 0.145 µM
COCCCCCNC1c2ccccc2N(C)S(=O)(=O)c2cc(Cl)ccc21 (stereo not drawn) | Human MOR (Homo sapiens, UniProt P35372) | EC50 | 0.563 µM

For each listed entry, give its EC50.
1. COCCCNC1c2ccccc2N(C)S(=O)(=O)c2cc(SC)ccc21 (stereo not drawn)
2. CCOC(=O)CCCCCCNC1c2ccccc2N(C)S(=O)(=O)c2cc(Br)ccc21 (stereo not drawn)
3. CCOC(=O)CCCCCCNC1c2ccccc2N(C)S(=O)(=O)c2ccccc21 (stereo not drawn)
4. COCCCNC1c2ccc(Cl)cc2S(=O)(=O)N(C)c2ccsc21 (stereo not drawn)
5. COCCCNC1c2ccccc2N(C)S(=O)(=O)c2cc(I)ccc21 (stereo not drawn)
6. CC(C)NC1c2ccccc2N(C)S(=O)(=O)c2cc(Cl)ccc21 (stereo not drawn)
7. CN1c2ccccc2C(NCCCC(F)(F)F)c2ccc(Cl)cc2S1(=O)=O (stereo not drawn)
8. COCCCNC1c2ccccc2N(C)S(=O)(=O)c2cc(F)ccc21 (stereo not drawn)

Result:
1: < 10 µM; 2: 0.573 µM; 3: < 10 µM; 4: < 10 µM; 5: 0.0152 µM; 6: < 10 µM; 7: < 10 µM; 8: 5.53 µM

Please state, for each entry, its recorded EC50.
1. CCOC(=O)CCCCCCNC1c2ccccc2S(=O)(=O)N(C)c2ccsc21 (stereo not drawn)
2. CCCCCNC1c2ccccc2N(C)S(=O)(=O)c2cc(Cl)ccc21 (stereo not drawn)
3. COCCCNC1c2ccccc2N(C)S(=O)(=O)c2cc(Oc3ccccc3)ccc21 (stereo not drawn)
4. COCCCNC1c2ccccc2N(C)S(=O)(=O)c2cc(SC(C)C)ccc21 (stereo not drawn)
5. CCOC(=O)CCCCCCNC1c2ccccc2N(C)S(=O)(=O)c2cc(I)ccc21 (stereo not drawn)
6. CCOC(=O)CCCCCCNC1c2ccc(Cl)cc2S(=O)(=O)N(C)c2ccsc21 (stereo not drawn)
7. CCOC(=O)CCCCCCNC1c2ccccc2N(C)S(=O)(=O)c2ccc(Cl)cc21 (stereo not drawn)

Result:
1: < 10 µM; 2: < 10 µM; 3: < 10 µM; 4: < 10 µM; 5: 0.137 µM; 6: < 10 µM; 7: < 10 µM

List EC50 for every entry below, keeping the order given.
1. COCCCNC1c2ccc(Cl)cc2N(C)S(=O)(=O)c2ccccc21 (stereo not drawn)
2. COCCCNC1c2ccccc2S(=O)(=O)N(C)c2c(OC)cccc21 (stereo not drawn)
3. CN1c2ccccc2C(NCCCCCCC2=NCCO2)c2ccc(Cl)cc2S1(=O)=O (stereo not drawn)

Result:
1. < 20 µM
2. < 20 µM
3. < 10 µM

Could you tell me EC50 for each of these compounds? They are listed below.
1. COCCCNC1c2ccccc2N(C)S(=O)(=O)c2ccccc21 (stereo not drawn)
2. CC(C)OCCCNC1c2ccccc2N(C)S(=O)(=O)c2cc(Cl)ccc21 (stereo not drawn)
3. COC(C)CCNC1c2ccccc2N(C)S(=O)(=O)c2cc(Cl)ccc21 (mixture of isomers)

Result:
1. < 10 µM
2. < 10 µM
3. < 10 µM

* * *

Hi there, I'd appreciate the recorded pEC50 for every entry that follows.
TGT: Mouse MOR (Mus musculus, UniProt P42866)
Construct: expressed in transfected cells; host or cells: HEK-293T
Sequence (P42866 whole entry): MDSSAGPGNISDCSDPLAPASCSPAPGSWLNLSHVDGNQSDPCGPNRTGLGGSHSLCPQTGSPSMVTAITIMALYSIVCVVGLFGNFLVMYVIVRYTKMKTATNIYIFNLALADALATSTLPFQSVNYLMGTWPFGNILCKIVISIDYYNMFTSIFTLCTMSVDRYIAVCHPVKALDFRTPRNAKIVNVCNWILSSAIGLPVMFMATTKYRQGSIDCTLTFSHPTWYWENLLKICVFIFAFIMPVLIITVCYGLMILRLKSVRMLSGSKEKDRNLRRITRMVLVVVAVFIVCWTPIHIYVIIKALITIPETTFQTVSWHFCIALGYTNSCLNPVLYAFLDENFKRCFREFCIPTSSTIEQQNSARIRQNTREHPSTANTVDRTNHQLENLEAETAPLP
TEST DESCRIPTION: BRET G protein activation assay, HEK-293T cells transfected with mouse MOR
Format: cell-based
STUDY CONDITIONS: BRET G protein activation, HEK-293T; mean ± SEM of independent trials; read-out: EC50 Mouse MOR
pEC50: −log10 of the molar value.

Some compounds with known pEC50 results, for comparison:
COMPOUND | pEC50
CCCNC1c2ccccc2N(C)S(=O)(=O)c2cc(Cl)ccc21 (centres unmarked) [compound 21] | > 5.00
COCCCNC1c2ccccc2N(C)S(=O)(=O)c2cc(SC)ccc21 (centres unmarked) [compound 44] | > 5.00
CCOC(=O)CCCCCCNC1c2ccccc2N(C)S(=O)(=O)c2cc(SC)ccc21 (centres unmarked) [compound 45] | > 5.00
CNC1c2ccccc2N(C)S(=O)(=O)c2cc(Cl)ccc21 (centres unmarked) [compound 20] | > 5.00

Hi there! I need pEC50 for each item below, if you can.
1. CCCCCNC1c2ccccc2N(C)S(=O)(=O)c2cc(Cl)ccc21 (centres unmarked) [compound 19]
2. COCCCNC1c2ccccc2N(C)S(=O)(=O)c2cc(Cl)ccc21 (centres unmarked) [compound 23]
3. CC(C)NC1c2ccccc2N(C)S(=O)(=O)c2cc(Cl)ccc21 (centres unmarked) [compound 22]
4. CCCCCNC1c2ccccc2N(C)S(=O)(=O)c2ccccc21 (centres unmarked) [compound 8]

Result:
1: > 5.00; 2: 5.92; 3: > 5.00; 4: > 5.00

* * *

TGT: Human MOR (Homo sapiens)
Construct: expressed in transfected cells; host or cells: HEK-293T
TEST DESCRIPTION: cell-based
pEC50: −log10 of the molar value.
ENDPOINT LABEL: pEC50

Hi, could you look up pEC50 for each item in my list?
1. CCOC(=O)CCCCCCNC1c2ccccc2N(C)S(=O)(=O)c2cc(Cl)ccc21 (stereo not shown)
2. CCOC(=O)CCCCCCNC1c2ccc(Br)cc2S(=O)(=O)N(C)c2ccsc21 (stereo not shown)
3. COCCCNC1c2cc(Br)ccc2N(C)S(=O)(=O)c2cc(Cl)ccc21 (stereo not shown)
4. COCCCNC1c2ccccc2N(C)S(=O)(=O)c2ccc(Cl)cc21 (stereo not shown)
5. CCOCCCNC1c2ccc(Cl)cc2S(=O)(=O)N(C)c2ccsc21 (stereo not shown)
6. COCCCNC1c2ccccc2N(C)S(=O)(=O)c2cc(OC(C)=O)ccc21 (stereo not shown)

Result:
6.18
> 5.00
> 5.00
> 4.70
> 5.00
> 5.00

Query: Find the recorded pEC50 belonging to CN1c2ccccc2C(NCCCCCCC(=O)NCCO)c2ccc(Cl)cc2S1(=O)=O (stereo not shown) and report it.
Result: > 5.00
